- MEASURED_TARGET: T1, human DLL3 protein (human, UniProt Q9NYJ7 27-492, limits assumed)
- T1 construct: Soluble human DLL3 protein used in BLI; also called Delta-like protein 3
- T1 sequence (looked up): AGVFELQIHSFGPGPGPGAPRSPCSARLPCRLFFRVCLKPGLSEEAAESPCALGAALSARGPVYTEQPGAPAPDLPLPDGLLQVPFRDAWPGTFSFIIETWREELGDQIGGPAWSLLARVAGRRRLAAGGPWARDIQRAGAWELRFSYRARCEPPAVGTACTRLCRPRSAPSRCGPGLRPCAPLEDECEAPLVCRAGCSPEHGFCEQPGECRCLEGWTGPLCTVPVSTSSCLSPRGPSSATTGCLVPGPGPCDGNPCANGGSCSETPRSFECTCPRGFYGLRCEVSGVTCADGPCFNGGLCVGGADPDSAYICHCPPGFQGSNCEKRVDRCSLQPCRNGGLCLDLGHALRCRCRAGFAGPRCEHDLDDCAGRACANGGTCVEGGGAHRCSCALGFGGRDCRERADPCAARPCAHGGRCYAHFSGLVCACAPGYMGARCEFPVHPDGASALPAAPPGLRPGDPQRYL
- PROCEDURE_SUMMARY: BLI, scFv-Fc against human DLL3 protein
REPORTED_METRIC: Kd (pM)
# number only, unit pM dropped from output

Ab.76 scFv-human IgG Fc (Fc fusion, not shown: human IgG Fc) EIVMTQSPATLSVSPGERATLSCRASQSVSSNLAWYRQKPGQAPRLFIYGAYTRATDIPARFSGSGSGTEFTLTISSLQSEDFAVYYCQQYNNWPFTFGPGTKVDIKGGGGSGGGGSGGGGSEVQMVESGGVLVQPGMSLRLSCAASGFTFDDYAMHWVRQPPGKGLEWVSVISWNSGSIGYADSVKGRFTISRDNAKNSLYLQMNSLRAEDTAFYYCAKDLEGGVMDFDYWGQGTLVTVSS
1220

Field: next binder
Query (binder): Ab.79 scFv-human IgG Fc (Fc fusion, Tested as scFv-human IgG Fc; not shown: human IgG Fc) DVVMTQSPLSLPVTLGQPASISCRSSQSLVYNDGNTYLTWFQQWPGQSPRRLIYKVSNRDSGVPDRFSGSGSGTDFTLKISRVEAEDIGVYHCMQGTHWPYTFGQGTKLEIKGGGGSGGGGSGGGGSQVQVQESGPGLVKSSETLSLTCTVSGGSFRSYYWSWIRQPPGKGLDYIGYMYYSGTTNYNPSLTNRVSISVDTSKNQFSLKLNSVTAADTAVYYCAREGTFDIWGQGTVVTVSS ; field requested: Kd
487
